The measured values listed here are drawn from paper PMC6788984.

# ASSAY REMARKS: Brain and serum concentrations in mice after IP injection (LC-MS/MS)
# Assay type: in vivo, mouse
# CONDITION NOTES: C57BL/6J, mouse, brain/serum, ip, 0.1 mg kg-1, mice, 0.1 mg kg-1 IP, time 60; read-out: brain/serum concentration ratio
READOUT KIND: Kp

[[record]]
compound = "CCN1CCN(C2=Nc3cc(Cl)ccc3Nc3c(F)cccc32)CC1 [JHU37160]"
readout_kind = "Kp"
observed_value = 12.9

[[record]]
compound = "CCN1CCN(C2=Nc3cc(Cl)ccc3Nc3cccc(F)c32)CC1 [JHU37152]"
readout_kind = "Kp"
observed_value = 5.99


* * *

# SUBJECT OF TEST: hM3Dq (Homo sapiens, UniProt P20309, A239G/Y149C)
# Sequence (P20309 whole entry Y149C/A239G): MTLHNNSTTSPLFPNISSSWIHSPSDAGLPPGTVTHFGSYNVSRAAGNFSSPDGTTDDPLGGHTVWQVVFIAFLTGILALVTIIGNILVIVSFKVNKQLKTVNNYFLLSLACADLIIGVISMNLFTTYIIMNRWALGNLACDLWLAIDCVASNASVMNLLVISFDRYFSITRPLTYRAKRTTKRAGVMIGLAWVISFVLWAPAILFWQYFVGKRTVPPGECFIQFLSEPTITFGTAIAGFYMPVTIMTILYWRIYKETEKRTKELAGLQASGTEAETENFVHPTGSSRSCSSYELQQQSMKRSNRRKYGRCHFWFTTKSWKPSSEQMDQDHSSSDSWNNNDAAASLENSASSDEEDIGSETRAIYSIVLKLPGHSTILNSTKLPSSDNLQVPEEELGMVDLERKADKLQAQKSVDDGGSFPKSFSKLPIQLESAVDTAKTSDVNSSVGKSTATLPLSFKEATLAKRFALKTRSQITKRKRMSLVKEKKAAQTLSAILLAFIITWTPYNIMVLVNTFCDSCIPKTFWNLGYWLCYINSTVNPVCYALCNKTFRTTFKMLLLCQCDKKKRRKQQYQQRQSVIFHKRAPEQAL
# ASSAY REMARKS: [3H]clozapine competition binding, membranes of HEK-293 cells expressing hM3Dq
# CONDITION NOTES: read-out: affinity (approximate, for equipotent concentrations); DREADD not specified
READOUT KIND: Ki

[[record]]
compound = "c1ccc2c(c1)N=C(N1CCNCC1)c1ccccc1N2 [C21]"
observed_value = "~0.2 µM"


* * *

# SUBJECT OF TEST: hM4Di (Homo sapiens, UniProt P08173, A203G/Y113C)
# ASSAY REMARKS: [3H]clozapine competition binding, membranes of HEK-293 cells expressing hM4Di
# Ki listing for each entry below
READOUT KIND: Ki (nM)

[[record]]
molecule = "CCN1CCN(C2=Nc3cc(Cl)ccc3Nc3c(F)cccc32)CC1 [JHU37160]"
observed_value = 3.6

[[record]]
molecule = "CCN1CCN(C2=Nc3cc(Cl)ccc3Nc3cccc(F)c32)CC1 [JHU37152]"
observed_value = 8.7

[[record]]
molecule = "CCN1CCN(C2=Nc3cc(Cl)ccc3Nc3ccc(F)cc32)CC1 [JHU37107]"
observed_value = 23.5

[[record]]
molecule = "CCN1CCN(C2=Nc3ccccc3Nc3ccccc32)CC1 [C22, reference compound]"
observed_value = 9


* * *

# ASSAY REMARKS: Brain and serum concentrations in mice after IP injection (LC-MS/MS)
# Format: in vivo, mouse
# CONDITION NOTES: C57BL/6J, mouse, brain/serum, ip, 0.1 mg kg-1, mice, 0.1 mg kg-1 IP, time 120; read-out: brain/serum concentration ratio
# Kp listing for each entry below
READOUT KIND: Kp

[[record]]
molecule = "CCN1CCN(C2=Nc3cc(Cl)ccc3Nc3cccc(F)c32)CC1 [JHU37152]"
observed_value = 4.52

[[record]]
molecule = "CCN1CCN(C2=Nc3cc(Cl)ccc3Nc3c(F)cccc32)CC1 [JHU37160]"
observed_value = 9.72


* * *

# ASSAY REMARKS: Brain and serum concentrations in mice after IP injection (LC-MS/MS)
# Format: in vivo, mouse
# CONDITION NOTES: C57BL/6J, mouse, brain/serum, ip, 0.1 mg kg-1, mice, 0.1 mg kg-1 IP, time 10; read-out: brain/serum concentration ratio
READOUT KIND: Kp

[[record]]
compound = "CCN1CCN(C2=Nc3cc(Cl)ccc3Nc3cccc(F)c32)CC1 [JHU37152]"
readout_kind = "Kp"
observed_value = 3.52

[[record]]
compound = "CCN1CCN(C2=Nc3cc(Cl)ccc3Nc3c(F)cccc32)CC1 [JHU37160]"
readout_kind = "Kp"
observed_value = 6.45


* * *

# SUBJECT OF TEST: hM3Dq (Homo sapiens, UniProt P20309, A239G/Y149C)
# ASSAY REMARKS: [3H]clozapine competition binding, membranes of HEK-293 cells expressing hM3Dq
# Ki listing for each entry below
READOUT KIND: Ki (nM)

[[record]]
item_smiles = "CCN1CCN(C2=Nc3cc(Cl)ccc3Nc3c(F)cccc32)CC1"
readout_kind = "Ki"
unit = "nM"
observed_value = 1.9

[[record]]
item_smiles = "CCN1CCN(C2=Nc3cc(Cl)ccc3Nc3ccc(F)cc32)CC1"
readout_kind = "Ki"
unit = "nM"
observed_value = 10.5

[[record]]
item_smiles = "CCN1CCN(C2=Nc3cc(Cl)ccc3Nc3cccc(F)c32)CC1"
readout_kind = "Ki"
unit = "nM"
observed_value = 1.8


* * *

# Kp listing for each entry below
# ASSAY REMARKS: Brain and serum concentrations in mice after IP injection (LC-MS/MS)
# Format: in vivo, mouse
# CONDITION NOTES: C57BL/6J, mouse, brain/serum, ip, 0.1 mg kg-1, mice, 0.1 mg kg-1 IP, time 30; read-out: brain/serum concentration ratio
READOUT KIND: Kp

[[record]]
item_smiles = "CCN1CCN(C2=Nc3cc(Cl)ccc3Nc3cccc(F)c32)CC1"
observed_value = 6.76

[[record]]
item_smiles = "CCN1CCN(C2=Nc3cc(Cl)ccc3Nc3c(F)cccc32)CC1"
observed_value = 8.48


* * *

# SUBJECT OF TEST: hM4Di (Homo sapiens, UniProt P08173, A203G/Y113C)
# Sequence (P08173 1-479 Y113C/A203G): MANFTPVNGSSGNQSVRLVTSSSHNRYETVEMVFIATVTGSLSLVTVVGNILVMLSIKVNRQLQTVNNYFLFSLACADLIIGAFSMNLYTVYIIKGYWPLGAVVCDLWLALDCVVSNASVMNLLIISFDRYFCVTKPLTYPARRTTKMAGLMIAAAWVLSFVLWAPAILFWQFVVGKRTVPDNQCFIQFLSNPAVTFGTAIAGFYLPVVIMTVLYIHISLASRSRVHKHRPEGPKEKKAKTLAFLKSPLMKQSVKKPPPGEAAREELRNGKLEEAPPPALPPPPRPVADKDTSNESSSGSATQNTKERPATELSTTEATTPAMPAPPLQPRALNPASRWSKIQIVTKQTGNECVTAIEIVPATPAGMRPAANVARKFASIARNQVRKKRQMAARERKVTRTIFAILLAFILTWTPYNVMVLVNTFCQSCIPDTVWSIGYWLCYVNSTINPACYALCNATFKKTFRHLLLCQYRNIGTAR
# ASSAY REMARKS: BRET Galpha-o1 protein activation assay in HEK-293 cells transfected with hM4Di
# CONDITION NOTES: BRET-based assay in HEK-293 cells
READOUT KIND: EC50 (nM)

[[record]]
item_smiles = "CCN1CCN(C2=Nc3cc(Cl)ccc3Nc3c(F)cccc32)CC1"
readout_kind = "EC50"
unit = "nM"
observed_value = 0.2

[[record]]
item_smiles = "CCN1CCN(C2=Nc3cc(Cl)ccc3Nc3cccc(F)c32)CC1"
readout_kind = "EC50"
unit = "nM"
observed_value = 0.5


* * *

# SUBJECT OF TEST: hM4Di (Homo sapiens, UniProt P08173, A203G/Y113C)
# ASSAY REMARKS: [3H]clozapine competition binding, membranes of HEK-293 cells expressing hM4Di
# CONDITION NOTES: read-out: hM4Di Ki; [3H]clozapine competition, HEK-293 membranes
pKi: −log10 of the molar value.
READOUT KIND: pKi

[[record]]
item_smiles = "c1ccc2c(c1)N=C(N1CCNCC1)c1ccccc1N2"
readout_kind = "pKi"
observed_value = 7.04

